Source of measurements: ChEMBL document CHEMBL1124983

Molecular target: Leukotriene B4 receptor 1 (Homo sapiens) (UniProt Q15722)
Sequence (Q15722 whole entry): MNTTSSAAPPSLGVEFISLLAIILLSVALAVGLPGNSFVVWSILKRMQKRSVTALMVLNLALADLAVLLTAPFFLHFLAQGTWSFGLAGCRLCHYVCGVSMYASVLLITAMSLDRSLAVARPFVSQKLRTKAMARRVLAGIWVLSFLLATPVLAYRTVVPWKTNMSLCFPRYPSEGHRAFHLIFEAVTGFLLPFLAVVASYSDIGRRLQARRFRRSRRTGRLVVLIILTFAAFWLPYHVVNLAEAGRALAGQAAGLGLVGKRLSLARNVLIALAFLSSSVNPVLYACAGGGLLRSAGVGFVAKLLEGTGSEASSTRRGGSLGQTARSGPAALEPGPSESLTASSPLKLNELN
Experiment: Antagonistic activity against Leukotriene B4 receptor by using [3H]LTB4 as a radioligand at a concentration of 10e-5 M
Type: functional
quantity: inhibition (%)

CCCCCCCCCCOc1ccc(Cc2cccc(C(=O)O)c2)cc1CCC(=O)O    88
CCCCCCCCCCOc1ccc(C(=O)c2cccc(-c3nn[nH]n3)c2)cc1CCC(=O)O    98
O=C(O)CCc1cc(C(=O)c2cccc(C(=O)O)c2)ccc1OCCCCCCc1ccccc1    100
O=C(O)CCc1cc(NC(=O)c2cccc(C(=O)O)c2)ccc1OCCCCCCc1ccccc1    98
CCCCCCCCCCOc1ccc(C(=O)c2cccc(C(=O)O)c2)cc1CCC(=O)O    95
O=C(O)CCc1cc(Sc2cccc(C(=O)O)c2)ccc1OCCCCCCc1ccccc1    102
CCCCCCCCCCOc1ccc(/C(=N\O)c2cccc(C(=O)O)c2)cc1CCC(=O)O    92
CCCCCCCCCCOc1ccc(C(=O)c2ccccc2CC(=O)O)cc1CCC(=O)O    100

* * *

Target: Leukotriene B4 receptor 1 (Homo sapiens) (UniProt Q15722)
Assay: Antagonistic activity against Leukotriene B4 receptor by using [3H]LTB4 as a radioligand at a concentration of 10e-6 M
Format: functional
quantity: inhibition (%)

CCCCCCCCCCOc1ccc(C(=O)c2ccccc2C(=O)O)cc1CC(=O)O    7
CCCCCCCCCCOc1ccc(C(=O)c2cccc(-c3nn[nH]n3)c2)cc1CC(=O)O    28
O=C(O)CCc1cc(NC(=O)c2cccc(C(=O)O)c2)ccc1OCCCCCCc1ccccc1    73
C=C(c1cccc(C(=O)O)c1)c1ccc(OCCCCCCCCCC)c(CCC(=O)O)c1    39

1. CCCCCCCCCCOc1ccc(C(=O)c2cccc(C(=O)O)c2)c(CC(=O)O)c1
2. CCCCCCCCCCOc1ccc(C(=O)Cc2ccccc2C(=O)O)cc1CCC(=O)O
Task: Please state the entry with greater inhibition among 1 and 2 . Returns: label corresponding to the selected item.
Result: 2

a. CCCCCCCCCCOc1ccc(C(=O)c2cccc(C(=O)NC)c2)cc1CCC(=O)NC
b. CCCCCCCCCCOc1ccc(C(=O)c2cccc(C(=O)OCC)c2)cc1Cc1nnn[nH]1
Task: Please state the entry with greater inhibition among a and b . Returns: label corresponding to the selected item.
Result: b
(b: 14%, a: 0%)
